System: SW 1116
procedure.summary: Cytotoxicity against human SW1116 cells by disk diffusion soft agar colony formation assay
Type: functional, cell-based
experimental.parameters: Homo sapiens, SW 1116
measured.metric: IC50 (µM)
The answer is to be given in µM; state only the numeric part.

The compound listed as C[C@]12[C@H]3C[C@H]4O[C@@H]5[C@H](C[C@]41O)[C@@](C)(O)CC[C@@]52COC(=O)/C=C1\CCO[C@@]2(CC/C=C\C(=O)O3)[C@H](O)C(=O)O[C@H]12 shows IC50 equal to 11.6

The compound listed as CC(=O)[C@@]12CC/C=C\C(=O)O[C@@H]3C[C@H]4O[C@@H]5[C@@H]6C[C@@]4(O)[C@@]3(C)[C@]5(CC[C@]6(C)O)COC(=O)/C=C(\CCO1)[C@H]2O shows IC50 equal to 22.7

The compound listed as C[C@]12[C@H]3C[C@H]4O[C@@H]5[C@H](C[C@]41O)[C@@](C)(O)CC[C@@]52COC(=O)/C=C1\CCO[C@]2(CC/C=C\C(=O)O3)[C@@H]1O[C@H](O)[C@H]2O shows IC50 equal to 0.57

----------
Tested on: SW 1116
procedure.summary: Cytotoxicity against human SW1116 cells by disk diffusion soft agar colony formation assay
Assay type: functional, cell-based
experimental.parameters: sw 1116
measured.metric: pIC50
Note: pIC50 values are expressed as the negative base-10 logarithm of concentration in M.

The compound listed as CC1=C[C@H]2O[C@@H]3C[C@@H](OC(=O)/C=C\C=C\C(OCCC4=CC(=O)OC4)[C@@H](C)O)[C@](C)([C@@]2(COC(=O)/C=C(\C)CCO)CC1)[C@]31CO1 (stereo not given in full) shows pIC50 equal to 8.51

The compound listed as C/C1=C\C(=O)OC[C@]23CCC(CO)=C[C@H]2O[C@@H]2C[C@@H](OC(=O)/C=C\C=C\[C@H]([C@@H](C)O)OCC1)[C@@]3(C)[C@]21CO1 shows pIC50 equal to 5.04

The compound listed as C[C@@H]1CCOC(=O)/C=C/C=C\C(=O)O[C@@H]2C[C@H]3O[C@@H]4C=C(CO)CC[C@]4(COC(=O)[C@H]1O)[C@]2(C)[C@]31CO1 [16-HYDROXY VERRUCARIN A] shows pIC50 equal to 7.92

The compound listed as CC1=C[C@H]2O[C@@H]3C[C@H]4OC(=O)/C=C\CC[C@@]5([C@H](C)O)OCC/C(=C\C(=O)OC[C@@]2(CC1)[C@]4(C)[C@]31CO1)[C@@H]5O shows pIC50 equal to 5.64

The compound listed as CC1=C[C@H]2O[C@@H]3C[C@H]4OC(=O)/C=C\C=C\[C@H]([C@@H](C)O)OCC/C(C)=C/C(=O)OC[C@@]2(CC1)[C@]4(C)[C@]31CO1 shows pIC50 equal to 7.41

----------
System: SW 1116
procedure.summary: Cytotoxicity against human SW1116 cells by disk diffusion soft agar colony formation assay
Format: functional, cell-based
experimental.parameters: sw 1116
pIC50: −log10 of the molar value.
Tag: rule met if measured pIC50 is not below 7, rule not met if it is.

Prompt: Is it the case that CC(=O)[C@@]12CC/C=C\C(=O)O[C@@H]3C[C@H]4O[C@@H]5C=C(CO)CC[C@]5(COC(=O)/C=C(\CCO1)[C@H]2O)[C@]3(C)[C@]41CO1 has pIC50 reaching or exceeding 7?
Response: rule not met

Prompt: Is it the case that CC1=C[C@H]2O[C@@H]3C[C@H]4OC(=O)/C=C\C=C\[C@@H]([C@@H](C)O)OCC/C(C)=C/C(=O)OC[C@@]2(CC1)[C@]4(C)[C@]31CO1 has pIC50 reaching or exceeding 7?
Response: rule met

Prompt: Is it the case that CC1=C[C@H]2O[C@@H]3C[C@H]4OC(=O)/C=C\CC[C@@]56OCC/C(=C\C(=O)OC[C@@]2(CC1)[C@]4(C)[C@]31CO1)[C@H]5OC(=O)[C@@H]6O has pIC50 reaching or exceeding 7?
Response: rule not met

Prompt: Is it the case that CC1=C[C@H]2O[C@@H]3C[C@H]4OC(=O)/C=C\C=C\[C@H]([C@@H](C)O)OCC[C@@H](C)[C@H](O)C(=O)OC[C@@]2(CC1)[C@]4(C)[C@]31CO1 [RORIDIN A] has pIC50 reaching or exceeding 7?
Response: rule not met

Prompt: Is it the case that CC1=C[C@H]2O[C@@H]3C[C@H]4OC(=O)/C=C\CC[C@@]56OCC/C(=C\C(=O)OC[C@@]2(CC1)[C@]4(C)[C@]31CO1)[C@H]5O[C@@H](O)[C@@H]6O has pIC50 reaching or exceeding 7?
Response: rule met

----------
Tested on: SW 1116
procedure.summary: Cytotoxicity against human SW1116 cells by disk diffusion soft agar colony formation assay
Assay type: functional, cell-based
experimental.parameters: Homo sapiens, SW 1116
measured.metric: log10(IC50) (log10 of the value in µM)
Heads up, the numbers here are log10 of IC50 in µM units.

The compound listed as CC(=O)O[C@@H]1/C2=C/C(=O)OC[C@@]34CC[C@](C)(O)[C@H]5C[C@]6(O)[C@@H](C[C@@H](OC(=O)/C=C\CC[C@]1(C(C)=O)OCC2)[C@]36C)O[C@H]54 shows log10(IC50) equal to 0.63

The compound listed as O=c1[nH]cc(F)c(=O)[nH]1 [FLUOROURACIL] shows log10(IC50) equal to 1.89

The compound listed as CC(=O)[C@@]12CC/C=C\C(=O)O[C@@H]3C[C@H]4O[C@@H]5[C@@H]6C[C@@]4(O)[C@@]3(C)[C@]5(CC[C@]6(C)O)COC(=O)/C=C(\CCO1)[C@@H]2O shows log10(IC50) equal to 1.03

The compound listed as C[C@]12[C@H]3C[C@H]4O[C@@H]5[C@H](C[C@]41O)[C@@](C)(O)CC[C@@]52COC(=O)/C=C1\CCO[C@]2(CC/C=C\C(=O)O3)[C@@H]1OC(=O)[C@@H]2O shows log10(IC50) equal to 1.32

The compound listed as C[C@]12[C@H]3C[C@H]4O[C@@H]5[C@H](C[C@]41O)[C@@](C)(O)CC[C@@]52COC(=O)/C=C1\CCO[C@@](C(=O)CO)(CC/C=C\C(=O)O3)[C@@H]1O shows log10(IC50) equal to 1.36

----------
System: SW 1116
procedure.summary: Cytotoxicity against human SW1116 cells by disk diffusion soft agar colony formation assay
Type: functional, cell-based
experimental.parameters: sw 1116
Could you please report measured pIC50 for the items listed next?
Note: pIC50 values are expressed as the negative base-10 logarithm of concentration in M.

The compound listed as CC1=C[C@H]2O[C@@H]3C[C@H]4OC(=O)/C=C\C=C\[C@H]([C@@H](C)O)OCC/C(CO)=C/C(=O)OC[C@@]2(CC1)[C@]4(C)[C@]31CO1 shows pIC50 equal to 5.10

The compound listed as C/C1=C\C(=O)OC[C@]23CCC(CO)=C[C@H]2O[C@@H]2C[C@@H](OC(=O)/C=C\C=C\C(=O)OCC1)[C@@]3(C)[C@]21CO1 shows pIC50 equal to 6.80

The compound listed as CC(=O)[C@@]12CC/C=C\C(=O)O[C@@H]3C[C@H]4O[C@@H]5C=C(C)CC[C@]5(COC(=O)/C=C(\CCO1)[C@H]2O)[C@]3(C)[C@]41CO1 shows pIC50 equal to 8.82

The compound listed as CC1=C[C@H]2O[C@@H]3C[C@H]4OC(=O)/C=C\C=C\C(=O)OCC[C@@H](C)[C@H](O)C(=O)OC[C@@]2(CC1)[C@]4(C)[C@]31CO1 shows pIC50 equal to 8.74

The compound listed as CC1=C[C@H]2O[C@@H]3C[C@H]4OC(=O)/C=C\CC[C@]5(C(=O)CO)OCC/C(=C\C(=O)OC[C@@]2(CC1)[C@]4(C)[C@]31CO1)[C@H]5O shows pIC50 equal to 6.26
